Origin of measurements: patent US20130116182A1

# system under test: T1, Recombinant HLA-DRB1*0401 protein (human)
# T1 chain 1: not shown
# T1 chain 2: not shown
# protocol conditions: remark: other sources report otherwise
quantity kind: IC50 (µM)
Give bare numbers, in µM.

ENIQRFLPNPAGVQLEDPEF [FVIII589-608 peptide]; 38

Request the reported IC50 associated with ENRSWYLTENIQRFLPNPAG [FVIII581-600 peptide]
48
